ED50: recorded values
Molecular target: cardiac 5-HT3 receptors (Rattus norvegicus, UniProt P35563)
Construct: from tissue; host or cells: whole anaesthetised male SD rat (in vivo)
Sequence (P35563 24-483): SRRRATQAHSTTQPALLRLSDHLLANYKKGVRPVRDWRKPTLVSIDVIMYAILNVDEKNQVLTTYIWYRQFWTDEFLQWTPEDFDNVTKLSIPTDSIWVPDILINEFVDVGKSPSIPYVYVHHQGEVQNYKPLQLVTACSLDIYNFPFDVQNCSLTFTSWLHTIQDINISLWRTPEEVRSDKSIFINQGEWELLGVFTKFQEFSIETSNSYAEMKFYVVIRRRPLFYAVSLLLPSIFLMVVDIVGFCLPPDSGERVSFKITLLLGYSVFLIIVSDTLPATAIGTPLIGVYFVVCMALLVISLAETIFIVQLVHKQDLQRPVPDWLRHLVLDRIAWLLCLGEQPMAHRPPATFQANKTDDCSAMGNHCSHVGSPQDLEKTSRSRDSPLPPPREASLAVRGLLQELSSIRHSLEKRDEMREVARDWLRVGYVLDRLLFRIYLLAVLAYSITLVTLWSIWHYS
Test: Antagonism against von Bezold-Jarisch reflex (BJ reflex): serotonin-induced reflexive bradycardia (Test 2)
Type: in vivo, SD rats
Settings: rat; intravenous, 5 minutes prior to 30 µg/kg serotonin i.v.; anesthetized male SD rats; read-out: ID50 (the source's name)
Experimental: This test was conducted following the method of Fozard, at al. (Arch. Pharmacology, 326, 36-44, 1984). […] The pulse was determined by measuring the electrocardiogram R waves (secondary induction) with an instantaneous pulse rate meter. […]
Structures can show the parent of a compound that is named as a salt.
Kindly provide the numeric value in µg/kg only, without the unit symbol.

Query: // map Cc1[nH]cnc1CN1CCc2c(c3cccc4c3n2CCC4)C1=O to recorded ED50 (system: cardiac 5-HT3 receptors (Rattus norvegicus, UniProt P35563))
Result: 0.11

Query: // map Cc1[nH]cnc1CN1CCc2c(c3cccc4c3n2C(c2ccccc2)CC4)C1=O.Cl (stereo not shown) to recorded ED50 (system: cardiac 5-HT3 receptors (Rattus norvegicus, UniProt P35563))
Result: 0.5

Query: // map Cc1[nH]cnc1CN1CCc2c(c3ccccc3n2C)C1=O.Cl [Allosetron hydrochloride] to recorded ED50 (system: cardiac 5-HT3 receptors (Rattus norvegicus, UniProt P35563))
Result: 0.28

Query: // map Cc1nccn1CC1CCc2c(c3ccccc3n2C)C1=O (stereo not shown) [Ondansetron hydrochloride, hydrochloride dihydrate] to recorded ED50 (system: cardiac 5-HT3 receptors (Rattus norvegicus, UniProt P35563))
Result: 2
